biological target: T1, FcRn-p3 fusion protein (human, UniProt P55899 24-297; P61769 21-119); assay: phage ELISA pH6
T1 construct: baculovirus expressed; coated on ELISA wells; not shown: amino terminal part of bacteriophage p3 protein and CVDE protein
T1 sequence (P55899 24-297, chain 1 of 2): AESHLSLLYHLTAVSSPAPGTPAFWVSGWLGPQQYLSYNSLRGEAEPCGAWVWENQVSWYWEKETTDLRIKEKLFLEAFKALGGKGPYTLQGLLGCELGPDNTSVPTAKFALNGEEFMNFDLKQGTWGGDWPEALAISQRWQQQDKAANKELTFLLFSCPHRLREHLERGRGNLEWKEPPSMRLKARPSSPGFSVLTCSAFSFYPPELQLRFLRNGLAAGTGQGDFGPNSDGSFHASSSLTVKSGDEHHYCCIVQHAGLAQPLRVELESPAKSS
T1 sequence (P61769 21-119, chain 2 of 2): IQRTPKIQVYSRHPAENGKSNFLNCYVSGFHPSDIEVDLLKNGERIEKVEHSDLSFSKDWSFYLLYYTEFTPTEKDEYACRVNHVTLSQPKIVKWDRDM
For each of the binders below, state its Ratio/Fc-H.
Expressed in fold, but write only the number.

stdin: So what does the record say about Ratio/Fc-H for T5A_45 (other, EU numbering) CPPCPTPELLGGPSVLLFPPKPKDTLMISRTPEVTCVVEDVSHEDPEVKFNWYVDGVEVHNAKTKPREEQYNSTYRVVSVLTVLHQDWLNGKEYKCKVSNKALPAPIEKTISKAKGQPREPQVYTLPPSRDELTKNQVSLTCLVKGFYPSDITVEWESNGQPENNYKTTPPMLDSDGSFFLYSKLTVDKSRWQQGNVFSCSVMHEALHSHYTQKSLSLSPGK ?
stdout: 4.5

stdin: Data request, read-out Ratio/Fc-H, for C7A_68 (other, EU numbering) CPPCPAPELLGGPSVFLFPPKPKDTLMISRTPEVTCVVEDVSHEDPEVKFNWYVDGVEVHNAKTKPREEQYNSTYRVVSVLTVLHQDWLDGKEYKCKVSNKALPAPIEKTISKAKGQPREPQVYTLPPSRDELTKNQVSLTCLVKGFYPSDIVVEWESNGQPENSYKTTPPVLDSDGSFFLYSKLTVDKSRWQQRNVFSCSVMHEALHYHYTQKSLSLSPGK
stdout: 3.4

stdin: Need Ratio/Fc-H of T4A_45 (other, EU numbering) CPPCPAPELLGGPSVFLFPPKPKDTLMISRTPEVTCVVEDVSHEDPEVKFNWYVDGVEVHNAKTKPREEQYNSTYRVVSVLTVPHQDWLNGKEYKCKVSNKALPAPIEKTISKAKGQPREPQVYTLPPSRDELTKNQVSLTCLVKGFYPSDIAVEWESNGQPENNYKTTPLVLDSDGSFFLYSKLTVDKSRWQQGNVFSCSVMHEALHSHYTQKSLSLSPGK , thanks.
stdout: 2.7
